system: HLA-A24; test: REVEAL binding assay; settings: score as percentage of the signal generated by the positive control peptide
Where no end group is shown, it is not given here. [ ]: non-standard residue; d: D form. Cit = NC(=O)NCCC[C@H](N)C(=O)O; Nle = CCCC[C@H](N)C(=O)O
Catalogue of REVEAL binding score, HLA-type A24 readings, one per entry.
Experimental endpoint: REVEAL binding score, HLA-type A24 (%)

INSERT INTO measurements (substance, experimental_endpoint, number) VALUES
  ('NLGRVIETL', 'REVEAL binding score, HLA-type A24', 0.86),
  ('LMGYIPLVG', 'REVEAL binding score, HLA-type A24', 0.51),
  ('GNIPGSTYS', 'REVEAL binding score, HLA-type A24', 0.00),
  ('SRNLGKVID', 'REVEAL binding score, HLA-type A24', 0.71),
  ('LGKVIDTLT', 'REVEAL binding score, HLA-type A24', 0.70),
  ('VTGNIPGST', 'REVEAL binding score, HLA-type A24', 1.60),
  ('RVIAHGLRL', 'REVEAL binding score, HLA-type A24', 0.79),
  ('LPAVGAPIG', 'REVEAL binding score, HLA-type A24', 0.61),
  ('GPRLGVRAT', 'REVEAL binding score, HLA-type A24', 0.05),
  ('P[Cit]IGVRAT[Cit]', 'REVEAL binding score, HLA-type A24', 0.21),
  ('GRVIETLTS', 'REVEAL binding score, HLA-type A24', 0.88),
  ('NLGKVIDTL', 'REVEAL binding score, HLA-type A24', 1.16),
  ('L[Nle]GYIPLIG', 'REVEAL binding score, HLA-type A24', 0.71),
  ('GITFSIYLI', 'REVEAL binding score, HLA-type A24', 3.05);
